The reader will find reported synergy score values listed item by item below.
test system: human multiple myeloma cells (MM.1S); experiment: Anti-proliferation assay (ATPLite, 72 h); format: cell-based; set-up: key: S = lnfX·lnfY·ΣIdata(Idata−ILoewe), volume over Loewe additivity; conditions: in combination with adenosine receptor agonist ADAC, MM.1S
Lab note: record the figure alone, no unit after it.

Return synergy score (reported value) for this molecule: COc1ccc(C2CNC(=O)C2)cc1OC1CCCC1 (centres unmarked)
1.147

* * *

The reader will find reported synergy score values listed item by item below.
system: human multiple myeloma cells (MM.1S); assay: Anti-proliferation assay (ATPLite, 72 h); format: cell-based; parameters: key: S = lnfX·lnfY·ΣIdata(Idata−ILoewe), volume over Loewe additivity; conditions: in combination with adenosine receptor agonist regadenoson, MM.1S
Where a name gives a salt, the structure may show the parent alone.

For orientation, consider the following solved cases.
Specify the recorded synergy score for O=C(Nc1c(Cl)cncc1Cl)c1ccc(OC(F)F)c(OCC2CC2)c1 [Roflumilast] , system: human multiple myeloma cells (MM.1S).
3.56

Specify the recorded synergy score for COc1cc(-c2ccc(=O)[nH]n2)ccc1OC(F)F [Zardaverine] , system: human multiple myeloma cells (MM.1S).
1.45

Specify the recorded synergy score for COc1cc2c(cc1OC)-c1cc(=Nc3c(C)cc(C)cc3C)n(C)c(=O)n1CC2 [Trequinsin hydrochloride] , system: human multiple myeloma cells (MM.1S).
1.85

Specify the recorded synergy score for COc1ccc([C@@H]2CNC(=O)C2)cc1OC1CCCC1 [R-(−)-Rolipram] , system: human multiple myeloma cells (MM.1S).
1.83

--- query ---
Specify the recorded synergy score for Cc1ccc([N+](=O)[O-])cc1S(=O)(=O)N(C)C [BRL-50481] , system: human multiple myeloma cells (MM.1S).
0.82

* * *

The reader will find reported synergy score values listed item by item below.
system: H929 multiple myeloma cell line; test: Anti-proliferation assay (ATPLite, 72 h); type: cell-based, human; parameters: key: S = lnfX·lnfY·ΣIdata(Idata−ILoewe), volume over Loewe additivity; conditions: PDE inhibitor crossed with (S) ENBA; H929
Counter-ions that a name gives are not always drawn.

For orientation, consider the following solved cases.
Return synergy score (reported value) for this compound: CCCOc1ccccc1-c1nc2nn[nH]c2c(=O)[nH]1 [Zaprinast]
0.05

Return synergy score (reported value) for this compound: CCOC(=O)C1=C[C@]2(CC)CCCN3CCc4c(n1c1ccccc41)[C@@H]32 [Vinoceptine]
0.21

Return synergy score (reported value) for this compound: COc1cc2c(cc1OC)-c1cc(=Nc3c(C)cc(C)cc3C)n(C)c(=O)n1CC2 [Trequinsin hydrochloride]
3.38

Return synergy score (reported value) for this compound: O=C1CCc2cc(OCCCCc3nnnn3C3CCCCC3)ccc2N1 [Cilostazol]
0.4

Return synergy score (reported value) for this compound: O=C(Nc1c(Cl)cncc1Cl)c1ccc(OC(F)F)c(OCC2CC2)c1 [Roflumilast]
1.77

Return synergy score (reported value) for this compound: COc1ccc(Cc2nccc3cc(OC)c(OC)cc23)cc1OC [Papaverine hydrochloride]
0.77

---
Return synergy score (reported value) for this compound: COc1ccc(C2CNC(=O)C2)cc1OC1CCCC1 (stereo not drawn) [Rolipram]
0.46

Return synergy score (reported value) for this compound: CC(=O)CCCCn1c(=O)c2c(ncn2C)n(C)c1=O [Pentoxifylline]
0.02

Return synergy score (reported value) for this compound: CCCCOc1cc(CC2CNC(=O)N2)ccc1OC (stereo not drawn) [RO-20-1724]
0.09

* * *

System: H929 multiple myeloma cell line
Test: Anti-proliferation assay (ATPLite, 72 h)
Type: cell-based, human
Design: key: S = lnfX·lnfY·ΣIdata(Idata−ILoewe), volume over Loewe additivity
Details: PDE inhibitor crossed with HE-NECA; H929
Experimental: ANBL6 and INA-6 culture media was also supplemented with 10 ng/ml IL-6. […] MM.1S, MM.1R, OCI-ly10, Karpas 422, and SU-DHL6 cells were provided by the Dana Farber Cancer Institute. […] Measurements were taken at the top of the well using a luminescence aperture and a read time of 0.1 seconds per well. The percent inhibition (% I) for each well was calculated using the following formula: % I=[(avg. untreated wells-treated well)/(avg. untreated wells)]×100. […]
Where a name gives a salt, the structure may show the parent alone.
Outcome label depends on synergy score relative to 1: at/above gives Criterion met, below gives Criterion not met.

Worked examples follow.
For this compound, is measured synergy score 1 or higher? COc1cc2c(cc1OC)-c1cc(=Nc3c(C)cc(C)cc3C)n(C)c(=O)n1CC2 [Trequinsin hydrochloride]
Criterion met

For this compound, is measured synergy score 1 or higher? COc1ccc(Cc2nccc3cc(OC)c(OC)cc23)cc1OC [Papaverine hydrochloride]
Criterion met

For this compound, is measured synergy score 1 or higher? CN/C(=N\c1ccc(C2=NNC(=O)CC2C)cc1)NC#N (stereo not drawn)
Criterion not met

For this compound, is measured synergy score 1 or higher? `CCCc1nn(C)c2c(=O)[nH]c(-c3cc(S(=O)(=O)N4CCN(C)CC4)ccc3OCC)nc12`
Criterion not met

For this compound, is measured synergy score 1 or higher? CCCCOc1cc(CC2CNC(=O)N2)ccc1OC (stereo not drawn)
Criterion met

For this compound, is measured synergy score 1 or higher? `COc1cc(-c2ccc(=O)[nH]n2)ccc1OC(F)F`
Criterion met

For this compound, is measured synergy score 1 or higher? COc1ccc(C2CNC(=O)C2)cc1OC1CCCC1 (stereo not drawn)
Criterion met

For this compound, is measured synergy score 1 or higher? `Cc1ccc([N+](=O)[O-])cc1S(=O)(=O)N(C)C`
Criterion not met

For the next question, use this compound.
For this compound, is measured synergy score 1 or higher? `CC(=O)CCCCn1c(=O)c2c(ncn2C)n(C)c1=O`
Criterion not met

* * *

tested on: H929 multiple myeloma cell line; experiment: Anti-proliferation assay (ATPLite, 72 h); format: cell-based, human; parameters: key: S = lnfX·lnfY·ΣIdata(Idata−ILoewe), volume over Loewe additivity; conditions: PDE inhibitor crossed with HE-NECA; H929
measuredAttribute: synergy score
Lab note: record the figure alone, no unit after it.

For orientation, consider the following solved cases.
Return synergy score (reported value) for this compound: `O=C(Nc1c(Cl)cncc1Cl)c1ccc(OC(F)F)c(OCC2CC2)c1`
0.98

Return synergy score (reported value) for this compound: `O=C1CCc2cc(OCCCCc3nnnn3C3CCCCC3)ccc2N1`
1.21

Return synergy score (reported value) for this compound: `CC(C)C(=O)c1c(C(C)C)nn2ccccc12`
0.32

Return synergy score (reported value) for this compound: `OCCN(CCO)c1nc(N2CCCCC2)c2nc(N(CCO)CCO)nc(N3CCCCC3)c2n1`
0.13

--- query ---
Return synergy score (reported value) for this compound: `CCOC(=O)C1=C[C@]2(CC)CCCN3CCc4c(n1c1ccccc41)[C@@H]32`
0

* * *

Tested on: human multiple myeloma cells (MM.1S)
Assay: Anti-proliferation assay (ATPLite, 72 h)
Type: cell-based
Set-up: key: S = lnfX·lnfY·ΣIdata(Idata−ILoewe), volume over Loewe additivity
Details: in combination with adenosine receptor agonist regadenoson, MM.1S
Method: ANBL6 and INA-6 culture media was also supplemented with 10 ng/ml IL-6. […] MM.1S, MM.1R, OCI-ly10, Karpas 422, and SU-DHL6 cells were provided by the Dana Farber Cancer Institute. […] Measurements were taken at the top of the well using a luminescence aperture and a read time of 0.1 seconds per well. The percent inhibition (% I) for each well was calculated using the following formula: % I=[(avg. untreated wells-treated well)/(avg. untreated wells)]×100. […]
measuredAttribute: synergy score

Specify the recorded synergy score for O=C1CCc2cc(OCCCCc3nnnn3C3CCCCC3)ccc2N1 [Cilostazol] , system: human multiple myeloma cells (MM.1S).
1.85

Specify the recorded synergy score for CC(C)C(=O)c1c(C(C)C)nn2ccccc12 [Ibudilast] , system: human multiple myeloma cells (MM.1S).
0.37

--- query ---
Specify the recorded synergy score for COc1ccc(Cc2nn3c([C@@H](CCCc4ccccc4)[C@@H](C)O)nc(C)c3c(=O)[nH]2)cc1OC [BAY 60-7550] , system: human multiple myeloma cells (MM.1S).
0.91

* * *

test system: H929 multiple myeloma cell line; assay: Anti-proliferation assay (ATPLite, 72 h); assay type: cell-based, human; conditions: in combination with adenosine receptor agonist regadenoson, H929
Where a name gives a salt, the structure may show the parent alone.
measuredAttribute: synergy score
Lab note: record the figure alone, no unit after it.

For orientation, consider the following solved cases.
Return synergy score (reported value) for this compound: Cc1ccc([N+](=O)[O-])cc1S(=O)(=O)N(C)C [BRL-50481]
0.19

Return synergy score (reported value) for this compound: COc1ccc(Cc2nn3c([C@@H](CCCc4ccccc4)[C@@H](C)O)nc(C)c3c(=O)[nH]2)cc1OC [BAY 60-7550]
1.89

Return synergy score (reported value) for this compound: COc1cc(-c2ccc(=O)[nH]n2)ccc1OC(F)F [Zardaverine]
1.02

Return synergy score (reported value) for this compound: CC(C)C(=O)c1c(C(C)C)nn2ccccc12 [Ibudilast]
1.08

Return synergy score (reported value) for this compound: COc1cc2c(cc1OC)-c1cc(=Nc3c(C)cc(C)cc3C)n(C)c(=O)n1CC2 [Trequinsin hydrochloride]
1.99

Return synergy score (reported value) for this compound: O=C(Nc1c(Cl)cncc1Cl)c1ccc(OC(F)F)c(OCC2CC2)c1 [Roflumilast]
2.7

Return synergy score (reported value) for this compound: COc1ccc([C@@H]2CNC(=O)C2)cc1OC1CCCC1 [R-(−)-Rolipram]
1.91

--- query ---
Return synergy score (reported value) for this compound: O=C1CCc2cc(OCCCCc3nnnn3C3CCCCC3)ccc2N1 [Cilostazol]
1.34
